target: CR8 (DxDxD) domain of LRP (Homo sapiens, UniProt Q07954); test: Tryptophan fluorescence titration of amino acid ligands with CR8 domain; assay type: binding; conditions: I=0.17, pH 5.5, 298 K
Sequence (Q07954 1060-1099 limits assumed): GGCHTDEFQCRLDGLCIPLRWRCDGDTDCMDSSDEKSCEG
This listing pairs compounds with measured Kd.
Property label: Kd (µM)

1) COC(=O)[C@@H](N)CCCCN [Lysine methyl ester]; 570
2) COC(=O)[C@H](CCCCN)NC(C)=O [N^α-acetyl-lysine methyl ester]; 2600
3) COC(=O)[C@@H](N)CCCN=C(N)N [Arginine methyl ester]; 780

----------
molecular target: CR3 (DxDxD) domain of LRP (Homo sapiens); test: Tryptophan fluorescence titration of amino acid ligands with CR3 domain; assay type: binding; settings: I=0.02, pH 5.5, 298 K
Sequence (Q07954 852-892 limits assumed): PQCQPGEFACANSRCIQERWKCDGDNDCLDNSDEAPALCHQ
Property label: Kd (µM)

1. COC(=O)[C@H](CCCCN)NC(C)=O; 2900
2. COC(=O)[C@@H](N)CCCN=C(N)N; 680
3. COC(=O)[C@@H](N)CCCCN; 530

Where these numbers come from: paper PMC3304490
